Target: T1, human GLP-1 receptor (human, UniProt P43220 24-463)
T1 construct: whole, on cells; also called hGLP-1R; human glucagon-like peptide-1 receptor
Assay: SPA competition vs [125I]-GLP-1, hGLP-1R membranes
Description: The binding buffer contains 25 mM HEPES, pH 7.4, 2.5 mM CaCl₂, 1 mM MgCl₂, 0.1% (w/v) bacitracin, 0.003% (w/v) TWEEN®-20, and Roche Complete™ Protease Inhibitors without EDTA. Data are analyzed using four-parameter (curve maximum, curve minimum, IC₅₀, Hill slope) nonlinear regression routines (Genedata Screener, version 12.0.4, Genedata AG, Basal, Switzerland). […] Geometric Means are calculated as follows: […]
pKi: −log10 of the molar value. *1 amine or outer side, *2 acyl side, *3 side chain or, on linkers, in order; H or OH if unused. Where no end group is shown, it is not given here. Side-chain parts run from the residue outwards. [ ]: non-standard residue; d: D form. The star is where a group is joined. Decanoyl(10-(4-HOOC-PhO)) = O=C(O)c1ccc(OCCCCCCCCCC(=O)*)cc1; αMePhe(2-F) = C[C@](N)(Cc1ccccc1F)C(=O)O; γGlu = O=C(O)[C@H](CCC(=O)[*:2])N[*:1]; C14 diacid = O=C(O)CCCCCCCCCCCCC(=O)*; αMeY = C[C@](N)(Cc1ccc(O)cc1)C(=O)O; αMeL = CC(C)C[C@](C)(N)C(=O)O; Nle = CCCC[C@H](N)C(=O)O; Orn = NCCC[C@H](N)C(=O)O; AEEA = NCCOCCOCC(=O)O; Aib = CC(C)(N)C(=O)O
measured parameter: pKi

[[record]]
binder = "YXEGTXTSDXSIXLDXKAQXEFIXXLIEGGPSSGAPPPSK (Aib2, αMeF(2F)6, 4Pal10, αMeL13, Orn16, K17(Z1), Aib20, D-Glu24, αMeY25, K40(Z1), C-term NH2; Z1=AEEA2-(γ-Glu)-CO-(CH2)10-CH3)"
assay_result = 9.71

[[record]]
binder = "Y[Aib]EGT[αMePhe(2-F)]TSDV[Aib]I[αMeL]LD[Orn]QAQ[Aib]EFIK([AEEA-AEEA-γGlu-Decanoyl(10-(4-HOOC-PhO))])[αMeY]LIK([AEEA-AEEA-γGlu-Decanoyl(10-(4-HOOC-PhO))])GGPSSGAPPPS-NH2 [Y-Aib-EGT-αMeF(2F)-TSDV-Aib-I-αMeL-LD-Orn …]"
assay_result = 9.42

[[record]]
binder = "YXEGTXTSDKXIXLDXKAQXEXIXXLIEGGPSSGAPPPS (Aib2, αMeF(2F)6, K10(Z1), Aib11, αMeL13, Orn16, K17(Z1), Aib20, αMeF22, D-Glu24, αMeY25, C-term NH2; Z1=AEEA3-(γ-Glu)-CO-(CH2)10-CH3)"
assay_result = 9.39

[[record]]
binder = "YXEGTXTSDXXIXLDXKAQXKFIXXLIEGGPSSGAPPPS (Aib2, αMeF(2F)6, 4Pal10, Aib11, αMeL13, Orn16, K17(Z1), Aib20, K21(Z1), D-Glu24, αMeY25, C-term NH2; Z1=AEEA-(γ-Glu)-(10-(4-carboxyphenoxy)decanoyl))"
assay_result = 9.17

[[record]]
binder = "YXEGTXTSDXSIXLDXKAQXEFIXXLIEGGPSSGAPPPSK (Aib2, αMeF(2F)6, 4Pal10, αMeL13, Orn16, K17(Z1), Aib20, D-Glu24, αMeY25, K40(Z1), C-term NH2; Z1=AEEA2-(γ-Glu)-CO-(CH2)12-CO2H)"
assay_result = 8.50

[[record]]
binder = "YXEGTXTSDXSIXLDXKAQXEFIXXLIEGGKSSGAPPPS (Aib2, αMeF(2F)6, 4Pal10, αMeL13, Orn16, K17(Z1), Aib20, D-Glu24, αMeY25, K31(Z1), C-term NH2; Z1=AEEA-(γ-Glu)-CO-(CH2)12-CO2H)"
assay_result = 8.97

[[record]]
binder = "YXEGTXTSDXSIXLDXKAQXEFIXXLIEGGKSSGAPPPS (Aib2, αMeF(2F)6, hTyr10, αMeL13, Orn16, K17(Z1), Aib20, D-Glu24, αMeY25, K31(Z1), C-term NH2; Z1=AEEA2-(γ-Glu)-CO-(CH2)12-CO2H)"
assay_result = 9.10

[[record]]
binder = "Y[Aib]EGT[αMePhe(2-F)]TSD[Nle]SI[αMeL]LD[Orn]QAQ[Aib][Orn]FIK([AEEA-AEEA-γGlu-C14 diacid])[αMeY]LIK([AEEA-AEEA-γGlu-C14 diacid])GGPSSGAPPPS-NH2"
assay_result = 9.57

[[record]]
binder = "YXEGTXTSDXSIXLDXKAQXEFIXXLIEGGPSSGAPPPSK (Aib2, αMeF(2F)6, 4Pal10, αMeL13, Orn16, K17(Z1), Aib20, D-Glu24, αMeY25, K40(Z1), C-term NH2; Z1=AEEA2-(γ-Glu)-CO-(CH2)14-CH3)"
assay_result = 9.32

[[record]]
binder = "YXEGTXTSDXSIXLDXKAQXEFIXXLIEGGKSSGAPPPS (Aib2, αMeF(2F)6, αMeL10, αMeL13, Orn16, K17(Z1), Aib20, D-Glu24, αMeY25, K31(Z1), C-term NH2; Z1=AEEA2-(γ-Glu)-CO-(CH2)12-CO2H)"
assay_result = 8.79

[[record]]
binder = "YXEGTXTSDXXIXLDXQAQXEFIKXLIKGGPSSGAPPPS (Aib2, αMeF(2F)6, 4Pal10, Aib11, αMeL13, Orn16, Aib20, K24(Z1), αMeY25, K28(Z1), C-term NH2; Z1=AEEA2-(γ-Glu)-(10-(4-carboxyphenoxy)decanoyl))"
assay_result = 9.37

